experiment: Tmax in Swiss albino mouse at 50 mg/kg, ip by LC-MS/MS analysis; type: ADME, organism-based; settings: in vivo
REPORTED_METRIC: Tmax (min)

MOLECULE	RESULT_NUMBER
O=C(CNc1cccc2c1C(=O)N(C1CCC(=O)NC1=O)C2=O)NCCCOc1ccc(NC(=O)c2ccc(CN(C(=O)c3ccc4c(c3)OCC(=O)N4)C3CC3)cc2)nc1 (stereo unspecified)	30
